endpoint: melting point

Some solved cases for reference:
[
  {
    "compoundSmiles": "COc1ccnc(C(=O)N[C@H]2COC(=O)[C@H](CCOC(=O)c3ccc(-c4ccccc4)cc3)[C@@H](OC(=O)C(C)C)[C@H](C)OC2=O)c1O",
    "result": "178 to 179 °C"
  },
  {
    "compoundSmiles": "COc1ccnc(C(=O)N[C@H]2COC(=O)[C@H](C)[C@@H](OC(=O)C(C)C)[C@H](C)OC2=O)c1O",
    "result": "198 to 200 °C"
  },
  {
    "compoundSmiles": "COc1ccnc(C(=O)N[C@H]2COC(=O)[C@H](CC(=O)OC(C)C)[C@@H](OC(=O)C(C)C)[C@H](C)OC2=O)c1O",
    "result": "169 to 170 °C"
  },
  {
    "compoundSmiles": "COc1ccnc(C(=O)N[C@H]2COC(=O)[C@H](CC3CCCCC3)[C@@H](OC(=O)C(C)C)[C@H](C)OC2=O)c1O",
    "result": "188 to 189 °C"
  },
  {
    "compoundSmiles": "COc1ccnc(C(=O)N[C@H]2COC(=O)[C@H](CCc3ccc(F)cc3)[C@@H](OC(=O)C(C)C)[C@H](C)OC2=O)c1O",
    "result": "142 to 144 °C"
  }
]

// below: melting point requested for another compound
query: Name the reported melting point value associated with the compound COc1ccnc(C(=O)N[C@H]2COC(=O)[C@H](Cc3ccc(C(F)(F)F)cc3)[C@@H](OC(=O)C(C)C)[C@H](C)OC2=O)c1O
result: 222 to 226 °C

###

melting point by entry:

Check out these entries, answers already filled in.
[
  {
    "compoundSmiles": "COc1ccnc(C(=O)N[C@H]2COC(=O)[C@H](Cc3ccc(C(F)(F)F)cc3)[C@@H](OC(=O)C(C)C)[C@H](C)OC2=O)c1OC(C)=O",
    "melting point": "127 to 134 °C"
  },
  {
    "compoundSmiles": "COc1ccnc(C(=O)N[C@H]2COC(=O)[C@H](CCOC(=O)c3ccc4c(c3)OCO4)[C@@H](OC(=O)C(C)C)[C@H](C)OC2=O)c1O",
    "melting point": "159 to 161 °C"
  },
  {
    "compoundSmiles": "COc1ccnc(C(=O)N[C@H]2COC(=O)[C@H](Cc3ccc(-c4ccccc4)cc3)[C@@H](OC(=O)C(C)C)[C@H](C)OC2=O)c1O",
    "melting point": "214 to 216 °C"
  },
  {
    "compoundSmiles": "COc1ccnc(C(=O)N[C@H]2COC(=O)[C@H](Cc3cccc(-c4ccccc4)c3)[C@@H](OC(=O)C(C)C)[C@H](C)OC2=O)c1O",
    "melting point": "182 to 186 °C"
  },
  {
    "compoundSmiles": "COc1ccnc(C(=O)N[C@H]2COC(=O)[C@H](Cc3ccc(Cl)nc3)[C@@H](OC(=O)C(C)C)[C@H](C)OC2=O)c1O",
    "melting point": "148 to 152 °C"
  }
]

query: // lookup melting point for COc1ccnc(C(=O)N[C@H]2COC(=O)[C@H](Cc3cccc4ccccc34)[C@@H](OC(=O)C(C)C)[C@H](C)OC2=O)c1O
result: 192 to 197 °C

query: How about COc1ccnc(C(=O)N[C@H]2COC(=O)[C@H](CCOCc3ccccc3)[C@@H](OC(=O)C(C)C)[C@H](C)OC2=O)c1O ?
result: 139 to 140 °C

query: Same thing, different compound: COc1ccnc(C(=O)N[C@H]2COC(=O)[C@H](Cc3ccncc3)[C@@H](OC(=O)C(C)C)[C@H](C)OC2=O)c1O
result: 151 to 156 °C

query: Also, CCCCCCC[C@H]1C(=O)OC[C@H](NC(=O)c2nccc(OC)c2O)C(=O)O[C@@H](C)[C@@H]1OC(=O)C(C)C please.
result: 131 to 134 °C
